# Assay protocol: in vitro
# Assay setup: human, Caco-2, pH 7.4, Recovery B-A, replicate 2
Readout: recovery at 90 min, 10 µM
Be sure to follow the number with its unit.

Record summary for CC1CN(c2ccc(NC(=O)C34COCC(c5ccc(OC(F)(F)F)cc5)(C3)C4)cn2)CC(C)O1 (stereo not shown) [Compound 51] : reported recovery at 90 min, 10 µM = 69%

* * *

# Assay protocol: in vitro
# Assay setup: human, Caco-2, pH 7.4, Recovery A-B, Mean
Readout: recovery at 90 min, 10 µM (%)
Write down the numeric answer in % and omit the unit.

Record summary for CC1CN(c2ccc(NC(=O)C34COCC(c5ccc(OC(F)(F)F)cc5)(C3)C4)cn2)CC(C)O1 (stereo not shown) : reported recovery at 90 min, 10 µM = 43

* * *

# Assay protocol: in vitro
# Assay setup: human, Caco-2, pH 7.4, Papp (BA), replicate 2
Readout: Papp B→A at 90 min, 10 µM
Be sure to follow the number with its unit.

Record summary for CC1CN(c2ccc(NC(=O)C34COCC(c5ccc(OC(F)(F)F)cc5)(C3)C4)cn2)CC(C)O1 (stereo not shown) : reported Papp B→A at 90 min, 10 µM = 8.7 ×10⁻⁶ cm/s

* * *

# Assay protocol: Metabolic stability in human liver microsomes
# Format: in vitro ADME
# Assay setup: both sexes, human, liver microsomes, pH 7.4, Table S6, 1st batch; 25 min; 2 µM
# Experimental: 9. Metabolic Stability in Human Liver Microsomes The objective of this study was to determine the metabolic stability of 3 test articles (EN300- […] in human liver microsomes at five-time points over 40 minutes using HPLC-MS. […] 100 rpm. Five-time points over 40 minutes were analyzed. […] Supernatants were analyzed using the HPLC system coupled with a tandem mass spectrometer. […]
Readout: remaining at 25 min, 2 µM (%)
Write down the numeric answer in % and omit the unit.

Record summary for CC1CN(c2ccc(NC(=O)C34CCCC(c5ccc(OC(F)(F)F)cc5)(C3)C4)cn2)CC(C)O1 (stereo not shown) : reported remaining at 25 min, 2 µM = 88

* * *

# Assay protocol: in vitro
# Assay setup: human, Caco-2, pH 7.4, Recovery B-A in presence of Verapamil, replicate 1, with verapamil
Readout: recovery at 90 min, 10 µM (%)
Write down the numeric answer in % and omit the unit.

Record summary for Cc1c(C(=O)Nc2ccc(N3C[C@@H](C)O[C@@H](C)C3)nc2)cccc1-c1ccc(OC(F)(F)F)cc1 : reported recovery at 90 min, 10 µM = 63

* * *

# Assay protocol: Metabolic stability in human liver microsomes
# Type: in vitro ADME
# Assay setup: both sexes, human, human liver microsomes, pH 7.4, Table S7, 2nd batch; 40 min; no NADPH; read-out: % Remaining without cofactor, Mean of 2
Readout: remaining at 40 min, 2 µM (%)
Write down the numeric answer in % and omit the unit.

Record summary for CC1CN(c2ccc(NC(=O)C34COCC(c5ccc(OC(F)(F)F)cc5)(C3)C4)cn2)CC(C)O1 (stereo not shown) : reported remaining at 40 min, 2 µM = 104

* * *

# Assay protocol: Metabolic stability in human liver microsomes
# Type: in vitro ADME
# Assay setup: both sexes, human, liver microsomes, pH 7.4; Table S7, 2nd batch
Readout: k el at 2 µM (s⁻¹)
Write down the numeric answer in s⁻¹ and omit the unit.

Record summary for Cc1c(C(=O)Nc2ccc(N3C[C@@H](C)O[C@@H](C)C3)nc2)cccc1-c1ccc(OC(F)(F)F)cc1 : reported k el at 2 µM = 0.000117

* * *

# Assay protocol: in vitro
# Assay setup: human, Caco-2, pH 7.4, Papp (AB), replicate 1
Readout: Papp A→B at 90 min, 10 µM (×10⁻⁶ cm/s)
Write down the numeric answer in ×10⁻⁶ cm/s and omit the unit.

Record summary for CC1CN(c2ccc(NC(=O)C34COCC(c5ccc(OC(F)(F)F)cc5)(C3)C4)cn2)CC(C)O1 (stereo not shown) [Compound 51] : reported Papp A→B at 90 min, 10 µM = 6.3

* * *

Measured remaining at 7 min, 2 µM, listed per entry for reference.
# Assay protocol: Metabolic stability in human liver microsomes
# Assay type: in vitro ADME
# Assay setup: both sexes, human, liver microsomes, pH 7.4, Table S7, 2nd batch; 7 min; 2 µM
Be sure to follow the number with its unit.

Record summary for Cc1c(C(=O)Nc2ccc(N3C[C@@H](C)O[C@@H](C)C3)nc2)cccc1-c1ccc(OC(F)(F)F)cc1 : reported remaining at 7 min, 2 µM = 100%

# evaluate next
Record summary for CC1CN(c2ccc(NC(=O)C34COCC(c5ccc(OC(F)(F)F)cc5)(C3)C4)cn2)CC(C)O1 (centres unmarked) : reported remaining at 7 min, 2 µM = 96%

* * *

Measured remaining at 40 min, 2 µM, listed per entry for reference.
# Assay protocol: Metabolic stability in human liver microsomes
# Format: in vitro ADME
# Assay setup: both sexes, human, liver microsomes, pH 7.4, Table S7, 2nd batch; 40 min; 2 µM; read-out: % Remaining, Mean of 2
Write down the numeric answer in % and omit the unit.

Record summary for Cc1c(C(=O)Nc2ccc(N3C[C@@H](C)O[C@@H](C)C3)nc2)cccc1-c1ccc(OC(F)(F)F)cc1 [Sonidegib] : reported remaining at 40 min, 2 µM = 77

# evaluate next
Record summary for CC1CN(c2ccc(NC(=O)C34COCC(c5ccc(OC(F)(F)F)cc5)(C3)C4)cn2)CC(C)O1 (centres unmarked) [Compound 51] : reported remaining at 40 min, 2 µM = 64

* * *

# Assay protocol: in vitro
# Assay setup: human, Caco-2, pH 7.4, Recovery B-A in presence of Verapamil, replicate 2
Readout: recovery at 90 min, 10 µM
Be sure to follow the number with its unit.

Record summary for CC1CN(c2ccc(NC(=O)C34COCC(c5ccc(OC(F)(F)F)cc5)(C3)C4)cn2)CC(C)O1 (stereo not shown) : reported recovery at 90 min, 10 µM = 86%

* * *

# Assay protocol: Metabolic stability in human liver microsomes
# Type: in vitro ADME
# Assay setup: both sexes, human, liver microsomes, pH 7.4; Table S6, 1st batch; read-out: t1/2
Readout: half-life at 2 μM

Record summary for CC1CN(c2ccc(NC(=O)C34CCCC(c5ccc(OC(F)(F)F)cc5)(C3)C4)cn2)CC(C)O1 (stereo not shown) [Compound 50] : reported half-life at 2 μM = ~2 h

* * *

# Assay protocol: in vitro
# Assay setup: human, Caco-2, pH 7.4, Recovery B-A, replicate 2, no verapamil
Readout: recovery at 90 min, 10 µM (%)
Write down the numeric answer in % and omit the unit.

Record summary for Cc1c(C(=O)Nc2ccc(N3C[C@@H](C)O[C@@H](C)C3)nc2)cccc1-c1ccc(OC(F)(F)F)cc1 : reported recovery at 90 min, 10 µM = 43

* * *

# Assay protocol: in vitro
# Assay setup: human, Caco-2, pH 7.4, Recovery B-A in presence of Verapamil, Mean, with verapamil
Readout: recovery at 90 min, 10 µM (%)
Write down the numeric answer in % and omit the unit.

Record summary for Cc1c(C(=O)Nc2ccc(N3C[C@@H](C)O[C@@H](C)C3)nc2)cccc1-c1ccc(OC(F)(F)F)cc1 : reported recovery at 90 min, 10 µM = 61

* * *

# Assay protocol: Metabolic stability in human liver microsomes
# Type: in vitro ADME
# Assay setup: both sexes, human, human liver microsomes, pH 7.4; Table S7, 2nd batch
Readout: k el at 2 µM (s⁻¹)
Write down the numeric answer in s⁻¹ and omit the unit.

Record summary for CC1CN(c2ccc(NC(=O)C34COCC(c5ccc(OC(F)(F)F)cc5)(C3)C4)cn2)CC(C)O1 (stereo not shown) [Compound 51] : reported k el at 2 µM = 0.000183

* * *

# Assay protocol: Metabolic stability in human liver microsomes
# Type: in vitro ADME
# Assay setup: both sexes, human, liver microsomes, pH 7.4; Table S6, 1st batch
Readout: k el at 2 µM

Record summary for CC1CN(c2ccc(NC(=O)C34CCCC(c5ccc(OC(F)(F)F)cc5)(C3)C4)cn2)CC(C)O1 (stereo not shown) : reported k el at 2 µM = ~0.0001 s⁻¹
